measure: melting point

- C[C@@H]1CCCN1CCCOc1ccc(C(=O)CN2CCN(c3ncccn3)CC2)cc1: 112 to 114 °C
- C[C@@H]1CCCN1CCCOc1ccc(C(=O)CN2CCN(S(=O)(=O)c3ccccc3)CC2)cc1: 124 to 135 °C
- CC(=O)N1CCN(CC(=O)c2ccc(OCCCN3CCC[C@H]3C)c(Cl)c2)CC1: 113 to 128 °C
- O=C(CN1CCOCC1)c1ccc(OCCCN2CCN3CCC[C@H]3C2)cc1: 238 °C
- CC(=O)N1CCN(CC(=O)c2cc(Cl)c(OCCCN3CCC[C@H]3C)c(Cl)c2)CC1: 115 °C
- Cc1cc(OCCCN2CCCCC2)ccc1C(=O)CN1CCOCC1: 206 to 215 °C
- C[C@@H]1CCCN1CCCOc1ccc(C(=O)CN2CCN(c3ccccc3)CC2)cc1: 145 to 150 °C
- O=C(CN1CCOCC1)c1ccc(OCCCN2CCCCC2)cc1F: 170 to 172 °C
- C[C@@H]1CCCN1CCCOc1ccc(C(=O)CN2CCN(S(C)(=O)=O)CC2)cc1F: 86 °C
- CC(C(=O)c1ccc(OCCCN2CCC[C@@H]2C)cc1)N1CCCCC1 (stereo partly drawn): > 230 °C
- CCOC(=O)N1CCN(CC(=O)c2ccc(OCCCN3CCC[C@H]3C)cc2)CC1: 218 to 219 °C
- O=C(CN1CCOCC1)c1ccc(OCCCN2CCCCC2)cc1: 236 to 243 °C
- C[C@@H]1CCCN1CCCOc1ccc(C(=O)CN2CCN(C(=O)c3ccccc3-c3ccccc3)CC2)cc1: 117 to 119 °C
- C[C@@H]1CCCN1CCCOc1ccc(C(=O)CN2CCN(C(=O)OC(C)(C)C)CC2)cc1: 198 to 199 °C
- CC1(C)CCCN1CCCOc1ccc(C(=O)CN2CCOCC2)cc1: 117 to 120 °C
- CCC(=O)N1CCN(CC(=O)c2ccc(OCCCN3CCC[C@H]3C)cc2)CC1: 65 to 70 °C
- C[C@@H]1CCCN1CCCOc1ccc(C(=O)CN2CCN(C)C(=O)C2)cc1: 115 to 120 °C
- C[C@@H]1CCCN1CCCOc1ccc(C(=O)CN2CCN(c3ccc(F)cc3)CC2)cc1: 140 to 145 °C

----------
- measured_on: rat histamine H3 receptor (Rattus norvegicus, UniProt Q9QYN8)
- Construct: encoding the entire 445-amino-acid rat histamine H3 receptor; expressed in transfected cells
- Sequence (Q9QYN8 whole entry): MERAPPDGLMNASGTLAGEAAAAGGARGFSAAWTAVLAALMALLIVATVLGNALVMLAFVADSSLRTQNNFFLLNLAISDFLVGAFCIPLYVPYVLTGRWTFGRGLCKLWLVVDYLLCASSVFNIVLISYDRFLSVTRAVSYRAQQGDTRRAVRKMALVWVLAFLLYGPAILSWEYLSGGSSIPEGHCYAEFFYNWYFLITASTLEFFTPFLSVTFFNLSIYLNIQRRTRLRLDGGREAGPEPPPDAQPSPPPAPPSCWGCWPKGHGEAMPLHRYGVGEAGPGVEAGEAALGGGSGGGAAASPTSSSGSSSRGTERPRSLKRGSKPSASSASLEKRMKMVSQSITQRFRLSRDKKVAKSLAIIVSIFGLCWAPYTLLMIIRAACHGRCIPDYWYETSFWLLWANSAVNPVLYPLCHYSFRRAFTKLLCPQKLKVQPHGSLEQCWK
- measurement_protocol: Rat H3 radioligand binding ([3H]-N-alpha-methylhistamine, SPA)
- particulars: membranes of CHO-A3 cells expressing rat H3; [3H]-N-alpha-methylhistamine; read-out: Rat H3 Ki
measure: Ki

• C[C@@H]1CCCN1CCCOc1ccc(C(=O)CN2CCN(C(=O)C3CCCCC3)CC2)cc1 = 0.1 to 100 nM
• Cc1cc(C(=O)CN2CCN(c3ncccn3)CC2)cc(C)c1OCCCN1CCC[C@H]1C = 501 to 1000 nM
• C[C@@H]1CCCN1CCCOc1ccc(C(=O)CN2CCN(S(C)(=O)=O)CC2)cc1F = 0.1 to 100 nM
• C[C@@H]1CCCN1CCCOc1ccc(C(=O)CN2CCN(C(=O)c3ccc(Cl)c(Cl)c3)CC2)cc1 = 0.1 to 100 nM
• C[C@@H]1CCCN1CCCOc1ccc(C(=O)CN2CCN(C(=O)c3cccc4ccccc34)CC2)cc1 = 0.1 to 100 nM
• C[C@@H]1CCCN1CCCOc1ccc(C(=O)CN2CCN(C(=O)Oc3ccccc3)CC2)cc1 = 0.1 to 100 nM
• CC(=O)N1CCN(CC(=O)c2cc(C)c(OCCCN3CCC[C@H]3C)c(C)c2)CC1 = 501 to 1000 nM
• COC[C@H]1CCCN1CCCOc1ccc(C(=O)CN2CCOCC2)cc1 = > 1000 nM

----------
measure: melting point

* C[C@@H]1CCCN1CCCOc1ccc(C(=O)CN2CCN(C(=O)Oc3ccc(F)cc3)CC2)cc1 | 234 to 236 °C
* CC(=O)N1CCN(CC(=O)c2ccc(OCCCN3CCC[C@H]3C)c(C)c2)CC1 | 120 to 126 °C
* C[C@@H]1CCCN1CCCOc1c(Cl)cc(C(=O)CN2CCC(F)(F)CC2)cc1Cl | 102 °C
* CC1CCC(C)N1CC(=O)c1ccc(OCCCN2CCC[C@H]2C)cc1 (stereo partly shown) | 100 to 106 °C

----------
Counter-ions that a name gives are not always drawn.
measure: melting point

• CC(=O)N1CCN(CC(=O)c2ccc(OCCCN3CCC[C@H]3C)cc2)CC1 [Example 63] = 125 to 133 °C
• CC(=O)N1CCN(CCCOc2ccc(C(=O)C(C)N3CCOCC3)cc2)CC1 (stereo not drawn) [Example 50] = 240 °C
• C[C@@H]1CCCN1CCCOc1ccc(C(=O)CN2CCN(C(=O)c3cccn3C)CC2)cc1 [Example 84] = 221 to 224 °C
• C[C@@H]1CCCN1CCCOc1ccc(C(=O)CN2CCN(c3ncccn3)CC2)cc1F [Example 119] = 219 °C
• CC(C(=O)c1ccc(OCCCN2CCC[C@H]2C)cc1)N1CCOCC1 (stereo partly drawn) [Example 37] = 231 °C
• C[C@@H]1CCCN1CCCOc1ccc(C(=O)CN2CCC(F)(F)CC2)cc1Cl [Example 134] = 130 to 143 °C
• CC1CCCC(C)N1CC(=O)c1ccc(OCCCN2CCC[C@H]2C)cc1 (stereo partly drawn) [Example 61] = 127 to 135 °C
• C[C@@H]1CCCN1CCCOc1ccc(C(=O)CN2CCN(C(=O)c3ccc(F)cc3)CC2)cc1 [Example 101] = 225 to 229 °C
• C[C@@H]1CCCN1CCCOc1ccc(C(=O)CN2CCN(C(=O)c3cccc(Cl)c3Cl)CC2)cc1 [Example 157] = 137 to 150 °C
• C[C@@H]1CCCN1CCCOc1c(Cl)cc(C(=O)CN2CCN(C(=O)c3ccccc3)CC2)cc1Cl [Example 96] = 111 °C
• C[C@@H]1CCCN1CCCOc1ccc(C(=O)CN2CCCC(C)(C)C2)cc1 [Example 55] = 108 to 120 °C
• C[C@@H]1CCCN1CCCOc1ccc(C(=O)CN2CCN(C(=O)C3CCCO3)CC2)cc1 (stereo partly drawn) [Example 83] = 185 to 190 °C
• CC(C(=O)c1ccc(OCCCN2CCC(F)(F)C2)cc1)N1CCOCC1 (stereo not drawn) [Example 56] = 254 °C
• COC[C@H]1CCCN1CCCOc1ccc(C(=O)CN2CCOCC2)cc1 [Example 71] = > 200 °C (dec.)
• CC(C)OC(=O)N1CCN(CC(=O)c2ccc(OCCCN3CCC[C@H]3C)cc2)CC1 [Example 158] = 222 to 224 °C
• C[C@@H]1CCCN1CCCOc1ccc(C(=O)CN2CCN(c3ccc(C(F)(F)F)cc3)CC2)cc1 [Example 105] = 230 to 233 °C
• C[C@@H]1CCCN1CCCOc1ccc(C(=O)CN2CCN(C(=O)c3ccco3)CC2)cc1 [Example 81] = 130 to 135 °C
• C[C@@H]1CCCN1CCCOc1ccc(C(=O)CN2CCN(C(=O)c3cc4ccccc4s3)CC2)cc1 [Example 124] = 214 to 217 °C
• C[C@@H]1CCCN1CCCOc1ccc(C(=O)CN2CCC(F)(F)CC2)cc1 [Example 44] = 127 to 140 °C
• CC(C)C(=O)N1CCN(CC(=O)c2ccc(OCCCN3CCC[C@H]3C)c(Cl)c2)CC1 [Example 118] = 140 °C (dec.)
• C[C@@H]1CCCN1CCCOc1ccc(C(=O)CN2CCN(S(C)(=O)=O)CC2)cc1 [Example 66] = 120 to 126 °C
• C[C@@H]1CCCN1CCCOc1c(Cl)cc(C(=O)CN2CCN(c3ncccn3)CC2)cc1Cl [Example 111] = 177 °C
• C[C@@H]1CCCN1CCCOc1ccc(C(=O)CN2CCN(C(=O)c3ccccc3)CC2)cc1F [Example 120] = 96 °C
• C[C@@H]1CCCN1CCCOc1ccc(C(=O)CN2CCN(C(=O)N(C)C)CC2)cc1 [Example 79] = 120 to 126 °C
• CC(C)C(=O)N1CCN(CC(=O)c2ccc(OCCCN3CCC[C@H]3C)cc2)CC1 [Example 77] = 220 to 226 °C
• C[C@@H]1CCCN1CCCOc1ccc(C(=O)CN2CCN(C(=O)c3ccc4ccccc4n3)CC2)cc1 [Example 145] = 115.4 to 120 °C
• C[C@@H]1CCCN1CCCOc1ccc(C(=O)CN2CCN(C(=O)Oc3ccccc3)CC2)cc1 [Example 128] = 194 to 199 °C
• COC(=O)N1CCN(CC(=O)c2ccc(OCCCN3CCC[C@H]3C)cc2)CC1 [Example 82] = 208 to 210 °C
• CC(C)N1CCC(Oc2ccc(C(=O)CN3CCOCC3)cc2)CC1 (as salt: hydrochloride) [Example 45] = 296 to 298 °C
• C[C@@H]1CCCN1CCCOc1cccc(C(=O)CN2CCC(F)(F)CC2)c1 [Example 154] = 110 to 120 °C
• C[C@@H]1CCCN1CCCOc1ccc(C(=O)CN2CCN(C(=O)c3ccc4ccccc4c3)CC2)cc1 [Example 109] = 100.5 to 109.5 °C
• C[C@@H]1CCCN1CCCOc1ccc(C(=O)CN2CCN(C(=O)N3CCCC3)CC2)cc1 [Example 75] = 118 to 130 °C
• Cc1cc(C(=O)CN2CCN(C(=O)c3ccccc3)CC2)cc(C)c1OCCCN1CCC[C@H]1C [Example 106] = 110 to 120 °C
